# TESTED_SYSTEM: GST-Nv-NF-kB (Cys allele) (Nematostella vectensis, UniProt E5G601 2-411)
# Sequence: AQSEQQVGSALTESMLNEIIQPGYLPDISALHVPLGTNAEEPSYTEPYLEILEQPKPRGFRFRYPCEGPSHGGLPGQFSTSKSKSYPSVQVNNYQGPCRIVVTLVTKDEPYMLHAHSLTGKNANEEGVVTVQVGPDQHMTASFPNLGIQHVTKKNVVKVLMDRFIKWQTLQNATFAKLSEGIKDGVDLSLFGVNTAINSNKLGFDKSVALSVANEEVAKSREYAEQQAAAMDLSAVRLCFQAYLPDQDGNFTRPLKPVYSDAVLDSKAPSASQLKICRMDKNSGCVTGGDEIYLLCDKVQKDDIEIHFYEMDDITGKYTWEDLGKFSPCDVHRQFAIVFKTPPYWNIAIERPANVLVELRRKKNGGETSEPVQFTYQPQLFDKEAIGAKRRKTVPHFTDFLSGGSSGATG
# PROTOCOL_SUMMARY: protein-binding microarray (PBM); PBM: ~300 nM protein, 6 mM HEPES pH 7.8, 80 mM KCl, 0.5 mM EDTA, 0.5 mM EGTA, 6% glycerol, 35 ng/ul poly-dIdC, 1% milk, 1 h, room temperature; Ap Aiptasia and Nv Nematostella (sea anemones) / Co Capsaspora / Aq Amphimedon (sponge) / Dm Drosophila / Hu human; RHD is the Rel homology domain; high values mean tight binding
# MEASUREMENT_SETUP: dsDNA, one strand shown
METRIC_NAME: binding signal (z-score)
Output spec: scalar in z-score, unitless text.

// below: answered sequences
# RECORD_SEQUENCE, EXPERIMENTAL_RESULT
rows = [
    ("CCGATTAACATCAGGAGAGTACCTGATGTTAATCGGGTCTTGATTCGCTTGACGCTGCTG", 2.32),
    ("CCGATTAACATCACGGGATTACCTGATGTTAATCGGGTCTTGATTCGCTTGACGCTGCTG", 1.79),
]

Form field binding signal, entry `CCGATTAACATCAGGGTTTTTAGTGATGTTAATCGGGTCTTGATTCGCTTGACGCTGCTG` : 1.3

Form field binding signal, entry `CCGATTAACATCAACATTCCCCCTGATGTTAATCGGGTCTTGATTCGCTTGACGCTGCTG` : 8.25

Form field binding signal, entry `CCGATTAACATCAGGCAAGCCCCTGATGTTAATCGGGTCTTGATTCGCTTGACGCTGCTG` : 2.83

Form field binding signal, entry `CCGATTAACATCAAATTGTCCCCTGATGTTAATCGGGTCTTGATTCGCTTGACGCTGCTG` : 5.87

Form field binding signal, entry `CCGATTAACATCAGGACAGCCCCTGATGTTAATCGGGTCTTGATTCGCTTGACGCTGCTG` : 5.09

Form field binding signal, entry `CCGATTAACATCAAAATATTCCCTGATGTTAATCGGGTCTTGATTCGCTTGACGCTGCTG` : 7.36
